System: proteinase K
Experiment: Proteolytic stability assessed as proteinase K (unknown origin)-mediated drug degradation measured for 20 mins by LC-MS analysis
Assay type: ADME, Homo sapiens
Conditions: read-out: Drug degradation
PARAMETER MEASURED: metabolised at 20 min
The answer should read as a number with its unit following.

For this substance ( "H-KRIVRRIKIFLR-OH" ), measured metabolised at 20 min is 89.4%

###

Target: Lipoteichoic acid
Experiment: Binding affinity to […] bacterial Lipoteichoic acid assessed as dissociation constant by BLI analysis
Design: species or system Bacteria
PARAMETER MEASURED: Kd
The answer should read as a number with its unit following.

H-KRIVQRIKDFLR-OH ... 241 nM

Alright, here's another substance for you.
Value (Kd, Lipoteichoic acid) for record "H-KRIVRRIKIFLR-OH" = 48.3 nM

All figures here come from ChEMBL document CHEMBL6109103.
